method: Human HepG2 cell viability assay in 384 well format
Type: toxicity, cell-based
Design: dose 125 nL, time 70.5 hour; concentration not given beside the values
condition-details: HepG2 cells, read-out: Inhibition
Some molecules, each annotated with its measured cytotoxicity at 70.5 h.
Supply the numeric figure in %, leaving out any unit text.

CSCC[C@H](NC(=O)CCn1ccc2c(Cl)cccc21)C(=O)O = -2.74

Item under review: COCC1CN(Cc2ccoc2)Cc2cn(CC3CCOCC3)nc21 (stereo unspecified) . Reported cytotoxicity at 70.5 h?
-9.14

Also O=C(c1csc2nc(-c3ccc(Cl)cc3)cn12)N1CCCC(CO)C1 (stereo unspecified) ?
-5.49

Also COc1ccc(OC)c(C(C)NS(=O)(=O)c2cnn(C)c2)c1 (stereo unspecified) ?
-12

Also COc1ccc(C[C@H]2CN(c3cc(OC)ncn3)CC[C@H]2OC)cc1 ?
11.6

Also NCCNS(=O)(=O)Cc1ccc(Br)cc1 ?
-0.385

====

Some compounds, each annotated with its measured cytotoxicity at 70.5 h.
method: Human HepG2 cell viability assay in 384 well format
Type: toxicity, cell-based
Set-up: dose 125 nL, time 70.5 hour; concentration not given beside the values
condition-details: HepG2 cells, read-out: Inhibition
Supply the numeric figure in %, leaving out any unit text.

Consider the following illustrative entries.
CCN1C[C@@H](C(=O)O)[C@H](c2cccc(OC)c2)C1 = 5.16
Cc1ccc(C(=O)N2CCc3c(CNS(C)(=O)=O)cncc3C2)o1 = 0.323
Cc1ccc(-c2cc(C(=O)NCCN3CCCS3(=O)=O)[nH]n2)o1 = -14.9
CSCC(C)(O)CNC(=O)c1ccc(F)cc1Cl (configuration not stated) = 0.551
Cc1nc(C)n(CC(C)C(=O)N2CCC(N3CCC(O)CC3)CC2)n1 (configuration not stated) = -3.14
CCn1nc2c(cc1=O)CN(Cc1nnc(C3CC3)o1)CC2 = 2.46
N#CC1(C(=O)N2CCN(Cc3ccon3)CC2)CCC1 = -20
CCC(C)C(=O)N(CC(=O)OC)c1cccc(C)n1 (configuration not stated) = 2.47
Cc1noc(C2CCN(Cn3cc(Cl)cn3)CC2)n1 = -4.35
Cc1cc(C)nc(NC(=O)C(C)Oc2ccc3c(c2)OCO3)n1 (configuration not stated) = -11.4

Proceeding to the next compound to report its cytotoxicity at 70.5 h.
Item under review: Cc1nn(C)cc1C(=O)NCc1cc(N(C)C)nc2ccccc12 . Reported cytotoxicity at 70.5 h?
-0.83

====

Some compounds, each annotated with its measured cytotoxicity at 70.5 h.
method: Human HepG2 cell viability assay in 384 well format
Format: toxicity, cell-based
Parameters: dose 125 nL, time 70.5 hour; concentration not given beside the values
condition-details: HepG2 cells, read-out: Inhibition
Supply the numeric figure in %, leaving out any unit text.

Item under review: O=C(c1ccccc1)N1CCO[C@@H]2CNC[C@@H]21 . Reported cytotoxicity at 70.5 h?
-5.73

Also COCCC1(C(=O)O)CCCN(Cc2ccccc2OCCO)C1 (centres undefined) ?
-8.44

Also COc1nn(C)c2c1CCCN(C(=O)c1c[nH]cn1)C2 ?
-1.78

Also CNC(=O)[C@H]1C[C@@H]2CCN(CCc3ccccc3)C[C@@H]2O1 ?
-4.11

Also Cn1cc(N2CC3(CCN(Cc4cccs4)CC3)OCC2=O)cn1 ?
-4.87

Also COc1ccc(CN(C(=O)C2CCOCC2)c2ccncc2)cc1 ?
-10.6

Also COc1ccc(CN2CCO[C@H]3CN(C(=O)C4CC4)CC[C@H]3C2=O)cc1 ?
-12

Also O=C(CNC(=O)c1ccc2c(c1)CCC2)NCCNc1ncccn1 ?
-14.4

Also CCc1ncc2c(n1)CN(C(=O)Cc1cc(OC)cc(OC)c1)C2 ?
-14

====

method: Human HepG2 cell viability assay in 384 well format
Format: toxicity, cell-based
Set-up: dose 125 nL, time 70.5 hour; concentration not given beside the values
condition-details: HepG2 cells, read-out: Inhibition
test-readout: cytotoxicity at 70.5 h (%)
Supply the numeric figure in %, leaving out any unit text.

Consider the following illustrative entries.
Cc1csc(C(C)(C)NCc2ncc(-c3ccc(F)cc3)o2)n1 = -4.53
Cc1nc(N2CCOCC2)nc2c1CCN(C(=O)N1CCCC1)CC2 = -2.06
O=S(=O)(c1ccc(F)cc1)N1CCOC[C@H](Oc2cnccn2)C1 = 12.5

Item under review: Cn1cnc2c1C(COCC1CCOCC1)CN(c1ncccn1)C2 (configuration not stated) . Reported cytotoxicity at 70.5 h?
-11.3

Also Nc1ncc(-c2cccc(NC(=O)[C@@H]3CCCCN3)c2)cn1 ?
-4.27

Also CCOc1ccc(CN2C(=O)CC3(CCCC3)C2=O)nc1 ?
17.6

Also CCN1CCC(CNc2nccc(C)n2)(N(C)C)CC1 ?
-3.2

====

method: Human HepG2 cell viability assay in 384 well format
Assay type: toxicity, cell-based
Set-up: dose 125 nL, time 70.5 hour; concentration not given beside the values
condition-details: HepG2 cells, read-out: Inhibition
test-readout: cytotoxicity at 70.5 h
Answer with the number, then the unit.

Item under review: C[C@@H](O)CNc1c(NCc2ccco2)c(=O)c1=O . Reported cytotoxicity at 70.5 h?
-12.9%

Also Cc1c[nH]c(CN2CCN(C)C3(CCC(=O)N(CC4CC4)CC3)C2)n1 (stereo unspecified) ?
19.9%

Also CCN(CC1CCOC1)C(=O)c1ccccc1N1CCOCC1 (stereo unspecified) ?
18.7%

Also COc1cc(CNC2CCN(c3ccccc3)C2)cc(OC)c1OC (stereo unspecified) ?
-6.84%

Also Cc1noc(CN(C)CC2CCCN(CCc3ccc(Cl)cc3)C2)n1 (stereo unspecified) ?
-11.4%

Also CS(=O)(=O)c1cccc(S(=O)(=O)NC(=O)c2cscn2)c1 ?
-4.27%

Also NC(=O)COc1cccc(CN2CCCC2c2ccc[nH]2)c1 (stereo unspecified) ?
-5.09%

Also COC(=O)c1cc(C2CC2)nc2c(C#N)cnn12 ?
25%

Also COCCN1C[C@H]2[C@@H](C1)N(C(=O)c1cccs1)CC[C@H]2OC ?
-21.9%

Also O=C(COc1ccccc1)N1C[C@@H](O)[C@H](N2CCCC2)C1 ?
-12.1%

Also C1CCN(Cc2nnn3c2CN(CC2CC2)CCC3)C1 ?
0.89%

====

Some molecules, each annotated with its measured cytotoxicity at 70.5 h.
method: Human HepG2 cell viability assay in 384 well format
Type: toxicity, cell-based
Parameters: dose 125 nL, time 70.5 hour; concentration not given beside the values
condition-details: HepG2 cells, read-out: Inhibition
Supply the numeric figure in %, leaving out any unit text.

Item under review: CCNc1ncc(CN2C[C@H](C3CC3)[C@@H](N)C2)cn1 . Reported cytotoxicity at 70.5 h?
-1.95

====

method: Human HepG2 cell viability assay in 384 well format
Format: toxicity, cell-based
Design: dose 125 nL, time 70.5 hour; concentration not given beside the values
condition-details: HepG2 cells, read-out: Inhibition
test-readout: cytotoxicity at 70.5 h (%)
Supply the numeric figure in %, leaving out any unit text.

O=C1COC[C@H]([C@H](O)c2ccc(NC(=O)c3ccco3)cc2)N1 = -0.619
CC(C)n1ccnc1CN1CCCN(C(=O)COC2CCCC2)CC1 = -3.66
O=C1C(Sc2nc(=O)ccn2C2CC2)CCN1c1ccccc1F (stereo unspecified) = 2.14
CN(CC(=O)N1CCN(c2cnccn2)CC1)c1ccc(Cl)cn1 = -13.1
CCC(CC)NC(=O)Cn1cc(C(N)=O)c(-c2ccccc2)n1 = 17.3

Item under review: COc1ccc(C(=O)N2CCCCC2c2nccs2)c(OC)c1 (stereo unspecified) . Reported cytotoxicity at 70.5 h?
-6.39

Also CCc1cccc(OCCN(C)C(=O)c2ccccc2NCC(=O)O)c1 ?
-13.6

Also Cc1cccc(NC2CCN(C(=O)Nc3cn[nH]c3)CC2)n1 ?
-6.92

Also NS(=O)(=O)Cc1ccc(CNC(=O)NCC2CCOC2)cc1 (stereo unspecified) ?
-15.3

Also Cc1c(C(=O)NC2(C#N)CCSC2)nnn1-c1ccccc1Cl (stereo unspecified) ?
-5.68

Also CC1=C[C@@H](CNS(C)(=O)=O)[C@H](C(C)C)C[C@H]1CC(=O)NCCN(C)C ?
1.17

====

method: Human HepG2 cell viability assay in 384 well format
Assay type: toxicity, cell-based
Design: dose 125 nL, time 70.5 hour; concentration not given beside the values
condition-details: HepG2 cells, read-out: Inhibition
test-readout: cytotoxicity at 70.5 h (%)
Supply the numeric figure in %, leaving out any unit text.

O=C(NCc1ccc(OCC2CC2)nc1)C1COc2ccccc2O1 (stereo unspecified) = -5.51
COc1cccc(CN(C)CC(=O)NC2(C)CCS(=O)(=O)C2)c1 (stereo unspecified) = -15.4
Cn1nc(C2CN(C(=O)c3cscn3)C2)c2nccnc21 = -3.87
O=C(Cc1ccsc1)N1CCC(O)(CN2CCc3ccccc3C2)C1 (stereo unspecified) = -5.49
CCCn1nc2c(cc1=O)CN(C(C)C(=O)Nc1nccs1)CC2 (stereo unspecified) = 4.51

Item under review: Cc1ccc(N2CC[C@@H]3CN(Cc4c[nH]cn4)C[C@@H]3C2)nn1 . Reported cytotoxicity at 70.5 h?
11

Also COc1cccc(CNC(=O)CN2CCCCC2Cn2cccn2)c1 (stereo unspecified) ?
-7.75

Also Cc1cncnc1C1CCN(CC(N)=O)CC1 ?
-4.96
